Hello, the source for this data is patent US12497460B2, in case you need it.

# measurementTarget: T1, His9-hMSR1 (human MSR1 extracellular domain) (Homo sapiens, UniProt P21757)
# T1 construct: human MSR1 extracellular domain expressed with a N-terminal nonahistidine tag; His9 (nonahistidine) (N); purchased R&D Systems 2708-MS
# T1 sequence (P21757 77-451 limits assumed): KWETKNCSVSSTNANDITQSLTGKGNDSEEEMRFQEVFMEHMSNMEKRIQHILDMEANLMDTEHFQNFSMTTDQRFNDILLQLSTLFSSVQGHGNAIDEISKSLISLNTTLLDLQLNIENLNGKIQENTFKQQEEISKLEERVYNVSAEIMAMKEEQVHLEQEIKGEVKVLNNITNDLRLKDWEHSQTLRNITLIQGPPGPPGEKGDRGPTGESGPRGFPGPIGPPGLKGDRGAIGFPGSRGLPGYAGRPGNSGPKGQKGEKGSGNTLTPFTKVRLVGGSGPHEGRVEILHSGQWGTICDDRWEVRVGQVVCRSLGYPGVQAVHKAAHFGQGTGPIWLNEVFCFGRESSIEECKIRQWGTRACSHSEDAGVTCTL
# assayInfo: Biacore surface plasmon resonance binding kinetics of anti-MSR1 mAbs, antibody-capture format
# setupConditions: 25° C.; analyte His9-hMSR1; dissociative half-life; NB = no binding observed
Here, each record is paired with measured t½ data.
Output spec: scalar in h, unitless text.

molecule	t½ (h)
H1H21227N: "anti-MSR1 antibodies ... (21227N, 21231N, 21234N) were produced with the original human Fcγ portion"; "H1H" = human IgG1 Fc (antibody, V domains shown, human IgG1 Fc, "anti-MSR1 antibodies ; (21227N, 21231N, 21234N) were produced with the original human Fcγ portion"; "H1H" = human IgG1 Fc) VH: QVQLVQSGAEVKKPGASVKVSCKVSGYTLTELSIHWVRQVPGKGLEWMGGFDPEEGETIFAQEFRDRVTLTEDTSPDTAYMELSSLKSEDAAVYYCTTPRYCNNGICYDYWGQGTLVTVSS VL: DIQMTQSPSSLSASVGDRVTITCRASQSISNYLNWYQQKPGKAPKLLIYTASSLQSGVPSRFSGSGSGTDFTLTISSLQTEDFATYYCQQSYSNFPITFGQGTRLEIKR	13.3

Next, consider the following molecule.
Recorded t½ (molecule H1H21231N-N297Q: modified version of "21231N (H1H21231N-N297Q) anti-MSR1 antibodies" with "a N297Q single point mutation" (antibody, V domains shown) VH: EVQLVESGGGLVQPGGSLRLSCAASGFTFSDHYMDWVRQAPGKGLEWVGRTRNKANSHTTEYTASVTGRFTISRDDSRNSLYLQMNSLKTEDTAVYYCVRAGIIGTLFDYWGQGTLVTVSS VL: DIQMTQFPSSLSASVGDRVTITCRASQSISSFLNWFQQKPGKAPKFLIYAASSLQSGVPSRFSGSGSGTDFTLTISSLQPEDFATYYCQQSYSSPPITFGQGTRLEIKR ): 3.27
